# testTarget: HLA-A*02:01 (Homo sapiens, UniProt P04439, D140Y/D185E/D98H/E176V/E277Q/G131W/G231S/I119V/I121R/I166T/I218V/L300P/L318F/N151K/N90K/P208A/P217A/Q86G/Q94H/R138H/R169H/T345S)
# procedureDetails: MHC binding assay (UV-ligand exchange, beta2m ELISA, peptide exchange yield)
# recordedConditions: binding to HLA-A*02:01 ranged by peptide exchange yield, β2m ELISA
readoutLabel: Peptide exchange (MHC class I binding score)

>  <substance>
53 (FLLEIRQTL; listed as Homo sapiens) [compound 53]

>  <obsValue>
++ (≥20% = ++)

$$$$
>  <substance>
93 (GVMAGDIYSV; listed as Homo sapiens) [compound 93]

>  <obsValue>
++++ (≥75% = ++++)

$$$$
>  <substance>
103 (KLQDGLLHI; listed as Homo sapiens) [compound 103]

>  <obsValue>
++ (≥20% = ++)

$$$$
>  <substance>
109 (YLWSRVEKL; listed as Homo sapiens) [compound 109]

>  <obsValue>
++++ (≥75% = ++++)

$$$$
>  <substance>
45 (ALLGIPLTL; listed as Homo sapiens) [compound 45]

>  <obsValue>
+++ (≥50 = +++)

$$$$
>  <substance>
98 (KIPPVSPSI; listed as Homo sapiens) [compound 98]

>  <obsValue>
++ (≥20% = ++)

$$$$
>  <substance>
33 (FIADVVEKI; listed as Homo sapiens) [compound 33]

>  <obsValue>
++ (≥20% = ++)

$$$$
>  <substance>
69 (ILADLLPSL; listed as Homo sapiens) [compound 69]

>  <obsValue>
++ (≥20% = ++)

$$$$
>  <substance>
62 (VLAGPAFLVQL; listed as Homo sapiens) [compound 62]

>  <obsValue>
+++ (≥50 = +++)

$$$$

* * *

# testTarget: HLA-A*02:01 (Homo sapiens, UniProt P04439, D140Y/D185E/D98H/E176V/E277Q/G131W/G231S/I119V/I121R/I166T/I218V/L300P/L318F/N151K/N90K/P208A/P217A/Q86G/Q94H/R138H/R169H/T345S)
# procedureDetails: MHC binding assay (UV-ligand exchange, beta2m ELISA, peptide exchange yield)
# recordedConditions: binding to HLA-A*02:01 ranged by peptide exchange yield, β2m ELISA
readoutLabel: Peptide exchange (MHC class I binding score)

>  <substance>
3 (RLLGEVQAL; listed as Homo sapiens) [compound 3]

>  <obsValue>
++ (≥20% = ++)

$$$$
>  <substance>
17 (ILAQQVHAL; listed as Homo sapiens) [compound 17]

>  <obsValue>
+++ (≥50 = +++)

$$$$
>  <substance>
43 (YLKDELDEL; listed as Homo sapiens) [compound 43]

>  <obsValue>
+++ (≥50 = +++)

$$$$
>  <substance>
48 (VVASNIMEV; listed as Homo sapiens) [compound 48]

>  <obsValue>
++ (≥20% = ++)

$$$$
>  <substance>
111 (TLLETEMLL; listed as Homo sapiens) [compound 111]

>  <obsValue>
++ (≥20% = ++)

$$$$
>  <substance>
5 (YLYPNLTRL; listed as Homo sapiens) [compound 5]

>  <obsValue>
++ (≥20% = ++)

$$$$
>  <substance>
99 (GLAPHLEQI; listed as Homo sapiens) [compound 99]

>  <obsValue>
++ (≥20% = ++)

$$$$
>  <substance>
83 (IQWSIVPEV; listed as Homo sapiens) [compound 83]

>  <obsValue>
+++ (≥50 = +++)

$$$$
>  <substance>
90 (FTLEKNFVI; listed as Homo sapiens) [compound 90]

>  <obsValue>
++ (≥20% = ++)

$$$$
>  <substance>
68 (YVLTQPPSV; listed as Homo sapiens) [compound 68]

>  <obsValue>
++ (≥20% = ++)

$$$$
>  <substance>
101 (HIYDKAFITV; listed as Homo sapiens) [compound 101]

>  <obsValue>
++ (≥20% = ++)

$$$$
>  <substance>
24 (FTLGTTVFL; listed as Homo sapiens) [compound 24]

>  <obsValue>
+++ (≥50 = +++)

$$$$
>  <substance>
38 (VLLDTILQL; listed as Homo sapiens) [compound 38]

>  <obsValue>
+++ (≥50 = +++)

$$$$
>  <substance>
92 (FLFRDILEL; listed as Homo sapiens) [compound 92]

>  <obsValue>
+++ (≥50 = +++)

$$$$
>  <substance>
100 (KLNVAPLAV; listed as Homo sapiens) [compound 100]

>  <obsValue>
++ (≥20% = ++)

$$$$
>  <substance>
27 (SLSDLLVSL; listed as Homo sapiens) [compound 27]

>  <obsValue>
+++ (≥50 = +++)

$$$$
>  <substance>
77 (SLIKHKIML; listed as Homo sapiens) [compound 77]

>  <obsValue>
++ (≥20% = ++)

$$$$
>  <substance>
82 (SLLQATDFMSL; listed as Homo sapiens) [compound 82]

>  <obsValue>
+++ (≥50 = +++)

$$$$
>  <substance>
89 (SLLLAVTEV; listed as Homo sapiens) [compound 89]

>  <obsValue>
++ (≥20% = ++)

$$$$
>  <substance>
88 (TLAELHISL; listed as Homo sapiens) [compound 88]

>  <obsValue>
++ (≥20% = ++)

$$$$
